- target_of_assay: human EP4 (Homo sapiens, UniProt P35408)
- Sequence (P35408 whole entry): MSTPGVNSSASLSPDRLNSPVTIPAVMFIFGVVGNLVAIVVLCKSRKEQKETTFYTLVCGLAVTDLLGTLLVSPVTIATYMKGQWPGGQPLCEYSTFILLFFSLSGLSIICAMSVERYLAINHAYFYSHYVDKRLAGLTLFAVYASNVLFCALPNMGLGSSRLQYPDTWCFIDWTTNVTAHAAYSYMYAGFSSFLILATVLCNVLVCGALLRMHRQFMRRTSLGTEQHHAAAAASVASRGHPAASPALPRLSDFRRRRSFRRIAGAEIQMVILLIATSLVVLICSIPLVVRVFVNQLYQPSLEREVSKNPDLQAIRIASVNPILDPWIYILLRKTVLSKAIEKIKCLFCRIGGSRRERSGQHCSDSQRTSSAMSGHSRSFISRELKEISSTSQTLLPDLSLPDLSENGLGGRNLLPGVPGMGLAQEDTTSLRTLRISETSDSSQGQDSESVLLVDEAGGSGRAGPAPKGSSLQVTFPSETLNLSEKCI
Structures can show the parent of a compound that is named as a salt.
measured_attribute: Ki
The reply must contain the numeric value and, after it, the unit.

QUERY: Recorded Ki of C[C@H](NC(=O)[C@H]1CC(F)(F)CCN1CCOc1ccccc1)c1ccc(C(=O)O)cc1 [Example 8, hydrochloride] , please.
RESULT: 3.68 nM

----------
- target_of_assay: human EP4 (Homo sapiens, UniProt P35408)
- test_protocol: In vitro human EP4 functional antagonist activity (inhibition of PGE2-stimulated cAMP production, HTRF)
- Type: cell-based
- Parameters: expressed in transfected cells
- conditions_used: HEK293 cells expressing human EP4, EC80 of PGE2 (0.188 nM); geometric mean ± SD, n=6; read-out: IC50 measured at human EP4 (PGE2-stimulated cAMP production)
Counter-ions that a name gives are not always drawn.
measured_attribute: pIC50
To interpret pIC50, take it as minus log10 of a concentration measured in moles per litre.

QUERY: Which pIC50 is listed for C[C@H](NC(=O)[C@H]1CC(F)(F)CCN1CCOc1ccccc1)c1ccc(C(=O)O)cc1 [Example 8, hydrochloride] ?
RESULT: 8.75

Values from patent US9776964B2
